experiment_description: Determination of the log P values by HPLC (formic acid method)
Assay type: physicochemical
assay_conditions: reversed-phase HPLC column (C 18), reversed-phase column (C 18), acidic range (pH 3.4), 55° C.
Experimental: 1) Description of Method for Determination of the Log P Values (Formic Acid Method) Eluents for determination in the acidic range (pH 3.4): Eluent A: acetonitrile+1 ml of formic acid/liter. Eluent B: water+0.9 ml of formic acid/liter. The lambda max values were determined in the maxima of the chromatographic signals using the UV spectra from 200 nm to 400 nm.
measure_name: chromatographic logP

Nc1cnn(-c2ncccc2F)n1 = 0.4
O=C(Nc1nn(-c2ncc(F)cc2F)c2ccc(F)cc12)c1ccccc1C(F)(F)F [Compound I-5-2] = 3.37
N#Cc1cc(F)c(-n2ccc(NC(=O)c3ccccc3C(F)(F)F)n2)c(F)c1 [Compound I-1-228] = 2.66
CCOc1c(Cl)cccc1-n1ccc(N)n1 = 2.13

[I] Nc1ccn(-c2nccc(I)c2F)n1
[II] CCOc1c(F)cccc1-n1ccc(N)n1
[III] N#Cc1cc(F)c(-n2ccc(NC(=O)c3ccccc3C(F)(F)F)n2)nc1Cl [Compound I-1-606]
# desc sort on chromatographic logP across 3 compounds Your reply should list the labels following the order given in the request.
III, II, I
(III: 2.94, II: 2.04, I: 1.38)

[a] Nc1cnn(-c2ncc(C(F)(F)F)cc2Cl)n1
[b] Nc1cnn(-c2ncc(F)cc2F)n1 [Ex.45-V]
Between the entries labelled a and b , which has a larger chromatographic logP value on record? Lab note: record the label of whichever item you select.
a
(a: 1.74, b: 0.65)

====

experiment_description: Determination of the log P values by HPLC (formic acid method)
Type: physicochemical
assay_conditions: reversed-phase column (C 18), acidic range (pH 3.4), 55° C.
measure_name: log P

Cc1nonc1C(=O)Nc1ccn(-c2c(F)cccc2F)n1 = 2.53
O=C(Nc1cnn(-c2ncccc2Br)n1)c1ccccc1I = 2.43
CCCc1nn(C)c(C(=O)Nc2ccn(-c3ncc(F)cc3F)n2)c1Cl = 3.42
O=C(Nc1ccn(-c2ncccc2C(F)(F)F)n1)c1ccccc1Br = 2.61
O=C(Nc1cnn(-c2ncc(F)cc2F)n1)c1ccsc1I = 2.44
O=C(Nc1ccn(-c2ccc(Cl)cc2Cl)n1)c1ccccc1Cl = 3.40
O=C(Nc1ccn(-c2c(F)cccc2F)c1)c1c(F)cccc1F = 2.68
O=C(Nc1cnn(-c2ncccc2Cl)n1)c1c(F)cccc1F = 2.09
O=C(Nc1ccn(-c2c(F)cccc2F)n1)c1cccnc1Br = 1.97
O=C(Nc1ccn(-c2ncc(F)cc2F)n1)c1cccnc1C(F)F = 1.77

[a] N#Cc1cc(F)ccc1-n1ccc(NC(=O)c2ccccc2Cl)n1
[b] CCc1nnccc1C(=O)Nc1ccn(-c2ncc(F)cc2F)n1
Between the entries labelled a and b , which has a larger log P value on record? Lab note: record the label of whichever item you select.
a
(a: 2.52, b: 1.50)

====

experiment_description: Determination of the log P values by HPLC (formic acid method)
Format: physicochemical
assay_conditions: reversed-phase column (C 18), acidic range (pH 3.4), 55° C.
measure_name: log P

Use these answered entries as a reference point.
O=C(Nc1nn(-c2ccccc2Br)nc1Cl)c1ccccc1I [Compound I-2-32] = 3.24
C=CCN(C(=O)c1ccccc1C(F)(F)F)c1ccn(-c2c(F)cccc2F)n1 [Compound I-1-255] = 3.44
O=C(Nc1ccn(-c2ncc(F)cc2F)n1)c1cccnc1CC(F)(F)F [Compound I-1-457] = 2.13
Cn1nc(C(F)(F)F)c(C(=O)Nc2cnn(-c3ncccc3Cl)n2)c1F [Compound I-2-16] = 2.19
CC(C)Cn1ncc(I)c1C(=O)Nc1ccn(-c2c(F)cccc2F)n1 [Compound I-1-323] = 3.47

[A] Cc1nc(-n2ccc(NC(=O)c3ccccc3C(F)(F)F)n2)c(F)cc1F [Compound I-1-439]
[B] Cc1ncccc1C(=O)Nc1ccn(-c2cc(F)ccc2F)n1 [Compound I-1-69]
Between the entries labelled A and B , which has a larger log P value on record? Lab note: record the label of whichever item you select.
A
(A: 2.85, B: 1.53)
